Would you mind telling me the reported koff of each entry?
- target.under.test: T1, recombinant human IL-6 (human, UniProt P05231 30-212)
- T1 construct: Flowed in solution over the captured antibodies
- protocol.notes: SPR (Biacore), supernatant IgG on Protein A, 25 C
Please reply with the bare figure in s⁻¹ and do not write the unit itself.

Reported koff of anti-IL-6 antibody, heavy chain V48I, light chain WT (antibody, IgG1, V domains shown, Full IgG1 tested; V domains derived as in m2) VH: EVQLVESGGGLVQPGGSLRLSCAASGFTFSPFAMSWVRQAPGKGLEWIAKISPGGSWTYYSDTVTGRFTFSLDTSKSTAYLQMNSLRAEDTAVYYCARQLWGYYALDIWGQGTLVTVSS VL: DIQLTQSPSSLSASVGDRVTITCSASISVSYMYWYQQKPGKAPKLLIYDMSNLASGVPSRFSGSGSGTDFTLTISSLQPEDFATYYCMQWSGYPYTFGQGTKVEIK : 0.000159

For record anti-IL-6 antibody, heavy chain WT, light chain S26G (antibody, IgG1, V domains shown, Full IgG1 tested; V domains derived as in m2) VH: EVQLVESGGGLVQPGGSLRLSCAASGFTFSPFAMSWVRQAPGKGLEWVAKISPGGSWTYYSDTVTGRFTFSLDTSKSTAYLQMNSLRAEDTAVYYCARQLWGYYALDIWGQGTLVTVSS VL: DIQLTQSPSSLSASVGDRVTITCSAGISVSYMYWYQQKPGKAPKLLIYDMSNLASGVPSRFSGSGSGTDFTLTISSLQPEDFATYYCMQWSGYPYTFGQGTKVEIK the listed koff is 0.000223
